Exercise: for every item that follows, state its recorded inhibition at 13 µM.
# experimental-system: S. pneumoniae Topoisomerase IV ATPase (ParE) (Streptococcus pneumoniae serotype 4)
# Sequence (Q59961 whole entry): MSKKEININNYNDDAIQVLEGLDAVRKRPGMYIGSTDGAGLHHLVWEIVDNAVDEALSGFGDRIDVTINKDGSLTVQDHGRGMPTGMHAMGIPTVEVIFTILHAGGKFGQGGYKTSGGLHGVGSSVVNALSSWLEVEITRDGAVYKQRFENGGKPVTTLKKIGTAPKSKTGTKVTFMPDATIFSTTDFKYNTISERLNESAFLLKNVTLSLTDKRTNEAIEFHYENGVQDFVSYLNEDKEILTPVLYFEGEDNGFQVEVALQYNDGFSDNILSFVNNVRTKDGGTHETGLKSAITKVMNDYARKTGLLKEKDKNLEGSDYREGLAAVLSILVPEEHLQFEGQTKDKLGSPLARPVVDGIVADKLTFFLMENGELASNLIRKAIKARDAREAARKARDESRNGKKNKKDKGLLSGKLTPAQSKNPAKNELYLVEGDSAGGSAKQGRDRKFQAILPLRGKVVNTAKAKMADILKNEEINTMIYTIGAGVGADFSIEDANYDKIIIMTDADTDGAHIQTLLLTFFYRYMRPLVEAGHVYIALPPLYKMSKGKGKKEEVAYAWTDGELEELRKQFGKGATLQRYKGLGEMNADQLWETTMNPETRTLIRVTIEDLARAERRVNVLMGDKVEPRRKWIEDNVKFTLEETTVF
# assay-method-text: S. pneumoniae Topoisomerase IV ATPase inhibition
# Type: biochemical
# settings: values marked * are an average of two or more data points, read-out: % Inh (13 μM) of S. pneumoniae Topoisomerase IV ATPase
Record the value in %, omitting the unit from your answer.

Quick one: inhibition at 13 µM of "O=C(O)[C@@H]1C[C@H]1c1cncc(-c2cnc(Nc3ccc(F)c(Cl)c3)nc2-n2ccc(C(F)(F)F)n2)c1" ? 100

Follow-up entry: "CCCS(=O)(=O)NC(=O)c1cc(-c2cnc(Nc3cc(OC)cc(OC)c3)nc2-n2nc(C(F)(F)F)cc2C)cnc1OC" 100

Follow-up entry: "Cc1nccn1-c1nc(Nc2ccc(F)c(Cl)c2)ncc1-c1cccc(/C=C/C(=O)O)c1" 83.4

Follow-up entry: "O=C(O)c1cncc(-c2cnc(Nc3ccc(F)c(Cl)c3)nc2NCCn2cccn2)c1" 103

Follow-up entry: "CNC(=O)C1CCN(c2nc(Nc3ccc(F)c(Cl)c3)ncc2-c2cncnc2)CC1" 69.9

Follow-up entry: "CCOC(=O)c1sc(-c2cnc(Nc3ccc(F)c(Cl)c3)nc2NCCCOC)nc1-c1ccccn1" 74

Follow-up entry: "O=C(O)c1cccc(-c2cnc(Nc3ccc(F)c(Cl)c3)nc2-n2ccc(C(F)(F)F)n2)c1" 91

Reference source: patent US20100137313A1
